Reference source for all entries: ChEMBL document CHEMBL1146301

# assay_protocol: Inhibition of HCV NS3 protease by FRET assay
# Set-up: species or system Hepacivirus hominis
Starred links: 1 amine or outer side, 2 acyl side, 3 side chain; linkers in the order of their positions; H or OH if unused. Non-standard residues stand in square brackets, D forms with d. Residues, ends and D or L forms follow the SMILES beside them. Chg = N[C@H](C(=O)O)C1CCCCC1; Suc = O=C(CCC(=O)[*:2])[*:1]
Give Ki for every item shown.
# unit: nM | format: bare number

Look up Ki for this compound: C=C[C@@H]1C[C@]1(NC(=O)[C@@H](NC(=O)[C@@H](NC(=O)OC(C)(C)C)C(C)(C)C)c1ccc(OC)cc1)C(=O)NS(=O)(=O)C1CC1 5400

Look up Ki for this compound: CCC[C@H](NC(=O)[C@@H]1C[C@@H](Oc2cc(-c3ccccc3)nc3cc(OC)ccc23)CN1C(=O)[C@@H](NC(=O)OC(C)(C)C)C(C)C)C(=O)NS(=O)(=O)c1ccccc1 300

Look up Ki for this compound: C=C[C@@H]1C[C@]1(NC(=O)[C@H](NC(=O)[C@@H](NC(=O)OC(C)(C)C)C(C)C)c1ccc(Oc2cc(-c3ccccc3)nc3cc(OC)ccc23)cc1)C(=O)NS(=O)(=O)c1ccccc1 400

Look up Ki for this compound: CC[C@H](C)[C@H](NC(=O)[C@@H](NC(=O)CCC(=O)O)C1CCCCC1)C(=O)N1CCC[C@H]1C(=O)N[C@@H](CS)C(=O)O (Suc-[Chg]IPC-OH) 23000

Look up Ki for this compound: COc1ccc2c(Oc3ccc([C@@H]4NC(=O)[C@@H](NC(=O)OC(C)(C)C)CCCCC/C=C\[C@@H]5C[C@@]5(C(=O)NS(=O)(=O)C5CC5)NC4=O)cc3)cc(-c3ccccc3)nc2c1 76
